# Tested on: P-813 cells
# run-description: Cytotoxicity against P-813 (text: P-815) mouse leukemia cells
# Format: cell-based
# condition-context: P815; mouse leukemia cells P-813; read-out: ID50 P-813
Give measured IC50 for each item. Keep answers brief.
Write it as a number; the unit µM goes unstated.

# return recorded IC50 for entry Nc1nc(S)c2ncn([C@@H]3O[C@H](CO)[C@@H](O)[C@@H]3F)c2n1
4.6

# return recorded IC50 for entry Nc1nc2c(ncn2[C@@H]2O[C@H](CO)[C@@H](O)[C@@H]2F)c(=O)[nH]1
5.4

# return recorded IC50 for entry OC[C@H]1O[C@@H](n2cnc3c(S)ncnc32)[C@@H](F)[C@@H]1O
10

====

# System: CCRF-CEM cells
# run-description: Cytotoxicity against CCRF-CEM human tumor cells
# Type: cell-based
# condition-context: human cells CCRF-CEM; read-out: ID50 CCRFCEM
Give measured IC50 for each item. Keep answers brief.
Write it as a number; the unit µM goes unstated.

# return recorded IC50 for entry Nc1nc(S)c2ncn([C@@H]3O[C@H](CO)[C@@H](O)[C@@H]3F)c2n1
0.1

# return recorded IC50 for entry Nc1ncnc2c1ncn2[C@@H]1O[C@H](CO)[C@@H](O)[C@@H]1F [X = NH2, Y = H]
0.67

# return recorded IC50 for entry O=c1[nH]cnc2c1ncn2[C@@H]1O[C@H](CO)[C@@H](O)[C@@H]1F
15.1

# return recorded IC50 for entry OC[C@H]1O[C@@H](n2cnc3c(S)ncnc32)[C@@H](F)[C@@H]1O [X = SH, Y = H]
10

The reported numbers originate from patent US4751221A.
